# protocol.summary: NCI Yeast Anticancer Drug Screen. Data for the sgs1 mgt1 strain (AID 161);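 further: 0% = growth of cultures given vehicle only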
# conditions.used: S. cerevisiae sgs1 mgt1 strain, at 5.0 µM (retest, dose inferred, filed as 0.5), hits give high values
The panel holds about 79,000 compounds, 15% with a hit somewhere; the sample as a whole holds those more often.
quantity.kind: growth inhibition (%)

[[record]]
compound = "c1ccc([As+](c2ccccc2)(c2ccccc2)c2cccc3ccccc23)cc1"
recorded_value = 93

[[record]]
compound = "CCOC(=O)C(c1ccsc1)P(=O)(OCC)OCC (stereo unspecified)"
recorded_value = 12

[[record]]
compound = "Cc1ccc(NC(=O)CBr)cc1"
recorded_value = 97

[[record]]
compound = "O=[C-]c1ccccc1[C-]=O.[Pd+2].c1ccc([PH+](c2ccccc2)c2ccccc2)cc1.c1ccc([PH+](c2ccccc2)c2ccccc2)cc1"
recorded_value = 23

[[record]]
compound = "CCN(CC)CC(=O)c1cc2ccccc2c2ccccc12"
recorded_value = 47

[[record]]
compound = "[Au+].[Au+].[Au+].[c-]1nccn1Cc1ccccc1.[c-]1nccn1Cc1ccccc1.[c-]1nccn1Cc1ccccc1"
recorded_value = 29


###

# protocol.summary: NCI Yeast Anticancer Drug Screen. Data for the rad50 strain (AID 155);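 further: 0% = growth of vehicle-only cultures of the same strain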
# conditions.used: S. cerevisiae rad50 strain growth inhibition; at 50.0 µM; hits give high values
# Experimental: Growth inhibition of yeast strains with defined genetic alterations is measured as a screen for potential anti-cancer activity. Selected strains with alterations in DNA damage repair or cell cycle control were exposed to compounds and growth inhibition was measured relative to vehicle treated controls. The strain used in this assay is rad50
The panel holds about 79,000 compounds, 15% with a hit somewhere; the sample as a whole holds those more often. Active and inactive are the calls of the source. No stated cut-off is given here; in the data, active means growth inhibition above about 70%; inactive means the rest.
quantity.kind: growth inhibition

[[record]]
compound = "Cc1cc(CCN)c(C)c2c1oc1ccccc12"
recorded_value = "98.5% (active)"

[[record]]
compound = "CN1CCC2CC(=O)NC1(C)C2(C)C (stereo unspecified)"
recorded_value = "13.2% (inactive)"

[[record]]
compound = "O=C(Cc1cccc([N+](=O)[O-])c1)Nc1cccc(S(=O)(=O)F)c1"
recorded_value = "5.8% (inactive)"

[[record]]
compound = "CCN1C(=O)C(=Cc2ccc(-c3ccccc3)cc2)C(=O)N(CC)C1=S"
recorded_value = "32.4% (inactive)"

[[record]]
compound = "N#CC(C#N)c1ccccc1"
recorded_value = "29.1% (inactive)"

[[record]]
compound = "C#CCC1(OC(N)=O)CCCCC1"
recorded_value = "19.2% (inactive)"


###

# protocol.summary: NCI Yeast Anticancer Drug Screen. Data for the bub3 strain (AID 167)
# conditions.used: S. cerevisiae bub3 mutant strain, at 50.0 µM, hits give high values
Compounds without any hit were thinned out: in the full panel of roughly 79,000, 15% have a hit.
quantity.kind: growth inhibition (%)

[[record]]
molecule = "O=C1C[C@@H]2OCC=C3C[N+]4([O-])CC[C@]56c7ccccc7N1[C@H]5[C@H]2[C@H]3C[C@@H]64 (stereo not given in full)"
quantity_kind = "growth inhibition"
recorded_value = 25.4

[[record]]
molecule = "CCOC(=O)c1cc(N(CCCl)CCCl)ccc1OC(=O)CC"
quantity_kind = "growth inhibition"
recorded_value = 5.85

[[record]]
molecule = "CC1(C)N=C(N)N=C(N)N1c1ccc(CCCCc2ccccc2S(=O)(=O)F)c(Cl)c1"
quantity_kind = "growth inhibition"
recorded_value = 99.5

[[record]]
molecule = "COP1(=O)Oc2ccccc2C(=O)C(C(F)(F)F)(C(F)(F)F)O1 (stereo not given)"
quantity_kind = "growth inhibition"
recorded_value = -20.2

[[record]]
molecule = "CCCCSc1ccc(C(SCCN(CC)CC)c2ccccc2)cc1 (stereo not given)"
quantity_kind = "growth inhibition"
recorded_value = 99.7

[[record]]
molecule = "OCC(O)C(O)C(O)C1C[O][Sb][O]1 (stereo not given)"
quantity_kind = "growth inhibition"
recorded_value = -2.85

[[record]]
molecule = "NCCCNCCCN"
quantity_kind = "growth inhibition"
recorded_value = 7.85

[[record]]
molecule = "O=C(NCCN1CCOCC1)C1(O)N=C(c2ccccc2)c2ccsc2-n2cccc21 (stereo not given)"
quantity_kind = "growth inhibition"
recorded_value = 27.6

[[record]]
molecule = "Clc1ccc([As](c2ccc(Cl)cc2)c2ccc(Cl)cc2)cc1"
quantity_kind = "growth inhibition"
recorded_value = 30.5

[[record]]
molecule = "Cc1cc(N(CCCl)CCCl)ccc1CN1CCCN(Cc2ccc(N(CCCl)CCCl)cc2C)C1c1ccc(N(CCCl)CCCl)cc1"
quantity_kind = "growth inhibition"
recorded_value = 30.8

[[record]]
molecule = "CS(=O)(=O)OCCN(CCCl)c1cc(C(N)=O)c([N+](=O)[O-])cc1[N+](=O)[O-]"
quantity_kind = "growth inhibition"
recorded_value = -11.4

[[record]]
molecule = "CN1CCOC(c2ccccc2)c2ccsc2CC1 (stereo not given)"
quantity_kind = "growth inhibition"
recorded_value = 9.4

[[record]]
molecule = "NC(=O)C(CBr)NCc1ccccc1 (stereo not given)"
quantity_kind = "growth inhibition"
recorded_value = 6.7

[[record]]
molecule = "COC(=O)C1=C(C(=O)OC)C2(C)OC1c1ccccc12 (stereo not given)"
quantity_kind = "growth inhibition"
recorded_value = 97

[[record]]
molecule = "CC12C(=O)C(C)(C(c3ccccc3)=C1c1ccccc1)C1(C#N)NC21C#N (stereo not given)"
quantity_kind = "growth inhibition"
recorded_value = 13.8

